Reference for the values: ChEMBL document CHEMBL1143434

assay: Cmax in CD1 mouse at 30 mg/kg, po
Assay type: ADME, organism-based
Set-up: dose 30 mg/kg, route oral
cond: in vivo
quantityName: Cmax (ng/mL)
Kindly answer with a numeric value in ng/mL, unit omitted.

Q: Value lookup for Cmax; key = `CC(C)(C)c1cnc(CSc2cnc(N[C@H]3CC[C@H](N)CC3)s2)o1`
A: 2390

====

assay: Bioavailability in CD1 mouse at 30 mg/kg, po
Assay type: ADME, organism-based
cond: in vivo
quantityName: bioavailability
Answers without a unit are incomplete; give the number and then its unit.

Q: Value lookup for bioavailability; key = `CC(C)(C)c1cnc(CSc2cnc(N[C@H]3CC[C@H](N)CC3)s2)o1`
A: 92%

====

assay: Metabolic stability in human liver microsomes at 1 uM after 30 mins
Format: ADME, Microsome
cond: read-out: Stability
quantityName: remaining at 0.5 h, 1 µM
Answers without a unit are incomplete; give the number and then its unit.

Q: Value lookup for remaining at 0.5 h, 1 µM; key = `CC(C)(C)c1cnc(CSc2cnc(N[C@H]3CC[C@H](N)CC3)s2)o1`
A: 64%

====

target: Cyclin-dependent kinase 1/cyclin B1 (Homo sapiens)
Sequence (P06493 whole entry): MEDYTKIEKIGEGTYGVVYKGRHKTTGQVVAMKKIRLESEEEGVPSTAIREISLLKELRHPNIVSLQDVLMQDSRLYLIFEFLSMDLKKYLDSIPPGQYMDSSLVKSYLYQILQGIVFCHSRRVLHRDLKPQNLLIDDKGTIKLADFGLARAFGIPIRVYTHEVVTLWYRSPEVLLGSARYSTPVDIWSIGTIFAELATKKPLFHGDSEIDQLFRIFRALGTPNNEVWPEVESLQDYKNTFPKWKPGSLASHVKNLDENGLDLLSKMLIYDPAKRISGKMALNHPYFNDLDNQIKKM
Sequence (P14635 whole entry, further chain): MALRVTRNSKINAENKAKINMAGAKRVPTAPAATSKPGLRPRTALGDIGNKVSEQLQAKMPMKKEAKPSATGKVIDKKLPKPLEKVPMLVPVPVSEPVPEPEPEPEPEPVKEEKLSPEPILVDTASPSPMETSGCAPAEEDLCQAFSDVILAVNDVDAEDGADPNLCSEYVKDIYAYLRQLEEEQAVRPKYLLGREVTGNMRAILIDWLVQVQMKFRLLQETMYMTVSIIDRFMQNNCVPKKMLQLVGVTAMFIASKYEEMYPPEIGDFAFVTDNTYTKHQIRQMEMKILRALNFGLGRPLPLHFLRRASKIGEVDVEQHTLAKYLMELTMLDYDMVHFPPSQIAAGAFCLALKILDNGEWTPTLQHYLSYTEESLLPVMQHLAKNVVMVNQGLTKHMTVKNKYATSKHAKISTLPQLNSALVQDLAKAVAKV
assay: Inhibition of CDK1/cyclin B by IMAP florescence polarization assay
quantityName: pIC50
Just the number, please; pIC50 means minus log10 of the concentration in mol/L.

Q: Value lookup for pIC50; key = `CC(C)(C)c1cnc(CSc2cnc(N[C@H]3CC[C@H](N)CC3)s2)o1`
A: 6.12
